# Assayed System: FGFR3 (UniProt P22607)
# Sequence (P22607 whole entry, looked up): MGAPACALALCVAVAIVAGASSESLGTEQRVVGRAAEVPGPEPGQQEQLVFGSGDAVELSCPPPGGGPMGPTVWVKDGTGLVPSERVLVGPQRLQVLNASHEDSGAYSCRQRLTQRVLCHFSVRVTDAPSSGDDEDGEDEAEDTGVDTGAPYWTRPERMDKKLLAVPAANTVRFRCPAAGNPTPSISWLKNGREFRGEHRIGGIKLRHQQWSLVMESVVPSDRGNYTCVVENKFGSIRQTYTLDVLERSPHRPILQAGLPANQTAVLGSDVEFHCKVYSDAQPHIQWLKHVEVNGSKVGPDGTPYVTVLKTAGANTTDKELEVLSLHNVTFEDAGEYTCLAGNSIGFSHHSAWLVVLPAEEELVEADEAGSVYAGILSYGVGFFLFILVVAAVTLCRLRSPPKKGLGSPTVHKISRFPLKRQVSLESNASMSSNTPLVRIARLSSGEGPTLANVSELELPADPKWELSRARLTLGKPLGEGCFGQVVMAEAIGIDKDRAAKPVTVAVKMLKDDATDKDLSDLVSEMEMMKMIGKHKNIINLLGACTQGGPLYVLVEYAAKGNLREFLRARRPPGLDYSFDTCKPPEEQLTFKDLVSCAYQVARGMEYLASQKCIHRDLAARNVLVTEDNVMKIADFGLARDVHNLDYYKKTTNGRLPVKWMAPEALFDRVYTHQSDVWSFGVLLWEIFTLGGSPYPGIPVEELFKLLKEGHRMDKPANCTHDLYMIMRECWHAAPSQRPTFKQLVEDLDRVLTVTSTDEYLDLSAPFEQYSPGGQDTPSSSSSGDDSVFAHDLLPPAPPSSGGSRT
# Assay Info: phosphorylation enrichment, bacterial display (enrichment ratio); higher = better substrate or ligand; peptides without Tyr show the background
The threshold is inclusive: phosphorylation enrichment of exactly 0.7 counts as condition met; values below receive condition not met.

>>> assigned_label("ARMTNCGLPRY [TSPAN12_Y138_Y138C]")
"condition not met"
>>> assigned_label("RFVFFYSFLLK [PTEN_Y178_YF]")
"condition met"
>>> assigned_label("IPKTWYSAEQF [CD207_Y217]")
"condition not met"
>>> assigned_label("YSSLGYPLPEG [ZSWIM4_Y87_P89L]")
"condition met"
>>> assigned_label("ETLLFYGFRRS [POR_Y564_C566Y_YF]")
"condition not met"
>>> assigned_label("PLDGEYFTLPI [TP53_Y327_Q331P]")
"condition met"
>>> assigned_label("HNLDFYKMTTN [FGFR3_Y648_K650M_YF]")
"condition met"
>>> assigned_label("NQDRTYYERVR [SPEN_Y632_S635R]")
"condition not met"
>>> assigned_label("CDIARYIVSQL [MAST2_Y461_P459A]")
"condition met"
>>> assigned_label("PSSRDYKHNIK [PIGN_Y227]")
"condition not met"
>>> assigned_label("SGGGLYRDMGA [CBX8_Y321]")
"condition not met"
>>> assigned_label("NTFEKYWLFFQ [GATM_Y103_P105L_YF]")
"condition met"
>>> assigned_label("RSSGSYGGGGQ [HNRNPA1_Y341_P340S]")
"condition not met"
>>> assigned_label("TLQTMYGCDVG [HLA-B_Y123_S121T]")
"condition met"
>>> assigned_label("HHTDEYEFDEL [TGM1_Y134_YF]")
"condition met"
>>> assigned_label("HNVAIYEGYAL [ACTC1_Y168_P166A]")
"condition met"
>>> assigned_label("DPGVSYCTREE [PDHA1_Y301_R302C]")
"condition met"
>>> assigned_label("QLCVSYPGGYT [PROS1_Y259_N258S]")
"condition not met"
>>> assigned_label("STAPSYGNPSS [CD19_Y378_G373S]")
"condition not met"
>>> assigned_label("ADARMYGVHPW [PLP1_Y207_L210H]")
"condition not met"
>>> assigned_label("KRLKDYLMVLQ [USP25_Y425_T427M]")
"condition met"
>>> assigned_label("RFLRGYQQDAY [HLA-A_Y137_R138Q]")
"condition not met"
>>> assigned_label("QKMLDYLKEKK [RYR2_Y3780]")
"condition not met"
>>> assigned_label("EEQKRYFNAMK [SCN5A_Y1494_K1493R_YF]")
"condition not met"
>>> assigned_label("HEKKAYAFCGT [RPS6KA3_Y226_S227A]")
"condition not met"

###

# Assayed System: c-Src SH2;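 further: peptide library displayed on the E. coli surface as eCPX fusions, selected cells deep-sequenced, score is each peptide's frequency after selection divided by its frequency in the input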
# Assay Info: SH2 binding enrichment of the phosphorylated peptide, bacterial display (enrichment ratio); higher = better substrate or ligand; peptides without Tyr show the background
Lab note: anything with SH2 binding enrichment at or over 0.7 counts as criterion met; the rest go in criterion not met.

>>> assigned_label("FRQNVYIPGSN [PCDHGA1_Y895_YF]")
"criterion not met"
>>> assigned_label("LEPHIYAVADV [MYO9A_Y216]")
"criterion met"
>>> assigned_label("PHQTIYSALMI [FGF23_Y70]")
"criterion not met"
>>> assigned_label("HFVFFYSFLLK [PTEN_Y178_R173H_YF]")
"criterion met"
>>> assigned_label("RSFPSYYTSHV [NEFL_Y442]")
"criterion met"
>>> assigned_label("ILKPDYQPLAV [HYDIN_Y1072_I1077V]")
"criterion not met"
>>> assigned_label("CSHKFYGKQCC [ADAMTS16_Y1211]")
"criterion met"
>>> assigned_label("CTTIHYNHMCN [TP53_Y234_Y236H]")
"criterion met"
>>> assigned_label("CTHDLYMIMRE [FGFR3_Y724]")
"criterion not met"
>>> assigned_label("RLDRSYSFSFS [PEAR1_Y890_YF]")
"criterion not met"
>>> assigned_label("RLLVVFPWTQR [HBB_Y36_Y36F]")
"criterion met"
>>> assigned_label("VFDMLYQVANL [USP24_Y1087_L1089V]")
"criterion met"
